Ref: ChEMBL document CHEMBL4665653

Biological target: Muscarinic acetylcholine receptor M4 (Homo sapiens) (UniProt P08173)
Sequence (P08173 whole entry): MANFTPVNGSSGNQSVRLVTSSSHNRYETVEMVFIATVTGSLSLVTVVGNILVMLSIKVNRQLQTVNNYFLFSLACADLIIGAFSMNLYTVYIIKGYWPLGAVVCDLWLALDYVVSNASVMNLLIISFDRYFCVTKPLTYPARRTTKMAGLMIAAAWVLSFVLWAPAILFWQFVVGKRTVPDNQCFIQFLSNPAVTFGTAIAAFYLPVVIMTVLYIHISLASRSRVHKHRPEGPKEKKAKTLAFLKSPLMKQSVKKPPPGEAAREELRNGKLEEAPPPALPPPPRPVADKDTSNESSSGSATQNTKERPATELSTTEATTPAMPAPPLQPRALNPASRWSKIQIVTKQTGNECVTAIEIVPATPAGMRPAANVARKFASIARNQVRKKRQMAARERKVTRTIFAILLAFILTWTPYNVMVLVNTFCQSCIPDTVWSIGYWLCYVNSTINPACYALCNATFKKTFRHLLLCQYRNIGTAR
Test: Positive allosteric modulation of human M4 receptor/Gqi5 in presence of EC20 acetylcholine by calcium mobilization assay relative to acetylcholine
Format: functional
Details: filed as positive allosteric modulator
Measured metric: %max (%)

# Item smiles, Endpoint unit, Value measured
measured = [
    ("Cc1c(O)nnc2sc(C(=O)NC3CN(c4ncc(C(F)(F)F)cn4)C3)c(N)c12", "%", 45),
    ("Cc1c(CF)nnc2sc(C(=O)NC3CN(c4ncc(C(F)(F)F)cn4)C3)c(N)c12", "%", 73),
    ("Cc1c(Cl)nnc2sc(C(=O)NC3CN(c4cc(Cl)ncc4Cl)C3)c(N)c12", "%", 59),
    ("Cc1c(Cl)nnc2sc(C(=O)NC3CN(c4cnc(Cl)cn4)C3)c(N)c12", "%", 99),
    ("Cc1c(Cl)nnc2sc(C(=O)NC3CN(c4nnc(CC(C)C)o4)C3)c(N)c12", "%", 47),
    ("COc1nnc2sc(C(=O)NC3Cc4ccccc4C3)c(N)c2c1C", "%", 83),
]

====

Assay: Brain to plasma permeability coefficient, Kp in Sprague-Dawley rat at 0.1 to 0.2 mg/kg, iv measured after 0.25 hrs
Assay type: ADME, organism-based
Settings: dose 0.1-0.2 mg/kg
Each entry gets NOT MET if its Kp at 0.25 h stays under 0.1, and MET if its Kp at 0.25 h is 0.1 or above.

# Item smiles, Class name
measured = [
    ("Cc1c(Cl)nnc2sc(C(=O)NC3CN(c4cc(C(F)(F)F)ncc4Cl)C3)c(N)c12", "MET"),
    ("Cc1c(CF)nnc2sc(C(=O)NC3CN(c4ncc(C(F)(F)F)cn4)C3)c(N)c12", "NOT MET"),
    ("COc1cc(N2CC(NC(=O)c3sc4nnc(Cl)c(C)c4c3N)C2)c(Cl)cn1", "MET"),
    ("Cc1c(C(F)F)nnc2sc(C(=O)NC3CN(c4ncc(C(F)(F)F)cn4)C3)c(N)c12", "MET"),
    ("COc1nnc2sc(C(=O)NC3CN(c4ncc(C(F)(F)F)cn4)C3)c(N)c2c1C", "MET"),
    ("Cc1nnc2sc(C(=O)NC3CN(c4ncc(C(F)(F)F)cn4)C3)c(N)c2c1C", "MET"),
]

====

Test: Hepatic clearance in rat
Assay type: ADME
Conditions: in vivo
Criterion: CLH strictly less than 30 mL/min/kg. Met: 1. Not met: 0.

# Item smiles, Class name
data = [
    ("Cc1c(CF)nnc2sc(C(=O)NC3CN(c4ncc(C(F)(F)F)cn4)C3)c(N)c12", 1),
    ("COc1cc(N2CC(NC(=O)c3sc4nnc(Cl)c(C)c4c3N)C2)c(Cl)cn1", 1),
    ("Cc1c(C(F)F)nnc2sc(C(=O)NC3CN(c4ncc(C(F)(F)F)cn4)C3)c(N)c12", 1),
    ("Cc1nnc2sc(C(=O)NC3CN(c4ncc(C(F)(F)F)cn4)C3)c(N)c2c1C", 1),
    ("Cc1c(Cl)nnc2sc(C(=O)NC3CN(c4ncc(C(F)(F)F)cn4)C3)c(N)c12", 0),
    ("Cc1c(Cl)nnc2sc(C(=O)NC3CN(c4cc(C(F)(F)F)ncc4Cl)C3)c(N)c12", 0),
]

====

Assay: Positive allosteric modulation of cynomolgus monkey M4 receptor
Parameters: species or system Macaca fascicularis
pEC50: −log10 of the molar value.
Measured metric: pEC50

# Item smiles, Value measured
records = [
    ("COc1nnc2sc(C(=O)NC3CN(c4ncc(C(F)(F)F)cn4)C3)c(N)c2c1C", 7.17),
]

====

Molecular target: Cytochrome P450 2D6 (Homo sapiens)
Sequence (P10635 whole entry): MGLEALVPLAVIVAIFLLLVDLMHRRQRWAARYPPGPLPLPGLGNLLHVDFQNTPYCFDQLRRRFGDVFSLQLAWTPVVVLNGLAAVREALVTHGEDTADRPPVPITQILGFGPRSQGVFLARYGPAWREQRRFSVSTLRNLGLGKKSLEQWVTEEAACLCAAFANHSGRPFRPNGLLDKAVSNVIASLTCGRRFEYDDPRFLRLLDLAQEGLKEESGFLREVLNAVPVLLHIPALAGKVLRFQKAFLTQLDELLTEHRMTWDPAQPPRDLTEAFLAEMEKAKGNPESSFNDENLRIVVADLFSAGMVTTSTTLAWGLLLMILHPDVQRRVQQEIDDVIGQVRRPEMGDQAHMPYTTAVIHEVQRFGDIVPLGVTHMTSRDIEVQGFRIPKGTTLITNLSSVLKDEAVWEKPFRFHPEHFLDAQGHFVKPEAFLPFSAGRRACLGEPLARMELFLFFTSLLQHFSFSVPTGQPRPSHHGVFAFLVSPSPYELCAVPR
pIC50: −log10 of the molar value.
Measured metric: pIC50

# Item smiles, Value measured
rows = [
    ("COc1nnc2sc(C(=O)NC3CN(c4ncc(C(F)(F)F)cn4)C3)c(N)c2c1C", "< 4.52"),
]

====

Test: Hepatic clearance in human
Assay type: ADME
Listing of entries alongside the reported CLH.
Measured metric: CLH (mL/min/kg)

# Item smiles, Measured metric, Value measured
data = [
    ("COc1cc(N2CC(NC(=O)c3sc4nnc(Cl)c(C)c4c3N)C2)c(Cl)cn1", "CLH", 11.7),
    ("Cc1c(Cl)nnc2sc(C(=O)NC3CN(c4cc(C(F)(F)F)ncc4Cl)C3)c(N)c12", "CLH", 14.7),
    ("Cc1c(C(F)F)nnc2sc(C(=O)NC3CN(c4ncc(C(F)(F)F)cn4)C3)c(N)c12", "CLH", 10.1),
]

====

Target: Muscarinic acetylcholine receptor M4 (Homo sapiens)
Assay: Positive allosteric modulation of human M4 receptor/Gqi5 in presence of EC20 acetylcholine by calcium mobilization assay relative to acetylcholine
Type: functional
Details: filed as positive allosteric modulator
Listing of entries alongside the reported %max.
Measured metric: %max (%)

# Item smiles, Value measured
measured = [
    ("Cc1nnc2sc(C(=O)NC3Cc4ccccc4C3)c(N)c2c1C", 79),
    ("Cc1c(Cl)nnc2sc(C(=O)NC3CN(c4ncc(C(F)(F)F)cn4)C3)c(N)c12", 78),
    ("Cc1cnnc2sc(C(=O)NC3Cc4ccccc4C3)c(N)c12", 81),
]
